Assay: Blood-brain distribution / LogBB
Assay type: in vivo
Conditions: Wistar (Crl:WI), rat, brain and plasma, iv; male Wistar rats, bolus plus 60 min continuous i.v. infusion; read-out: Brain/Plasma ratio
Measured Attribute: Kp at 1 h

Look over these answered cases.
- Compound: "NCc1c(-c2ccc(Cl)cc2Cl)ncn1Cc1cccnc1 [Example 121b]"
  Observed Value: 0.214
- Compound: "NCc1c(-c2ccc(Cl)cc2Cl)ncn1Cc1ccsc1 [Example 130b]"
  Observed Value: 0.23
- Compound: "NCc1c(-c2ccc(Cl)cc2Cl)ncn1Cc1ccccn1 [Example 39b]"
  Observed Value: 0.275

Kindly review the next compound as well.
Param item = NCc1c(-c2ccc(Cl)cc2Cl)ncn1Cc1ccccc1 [Example 24b] ; retrieve measured Kp at 1 h. 0.483
